- TESTED TARGET: ATM (Homo sapiens (Human))
- Sequence (Q13315 whole entry): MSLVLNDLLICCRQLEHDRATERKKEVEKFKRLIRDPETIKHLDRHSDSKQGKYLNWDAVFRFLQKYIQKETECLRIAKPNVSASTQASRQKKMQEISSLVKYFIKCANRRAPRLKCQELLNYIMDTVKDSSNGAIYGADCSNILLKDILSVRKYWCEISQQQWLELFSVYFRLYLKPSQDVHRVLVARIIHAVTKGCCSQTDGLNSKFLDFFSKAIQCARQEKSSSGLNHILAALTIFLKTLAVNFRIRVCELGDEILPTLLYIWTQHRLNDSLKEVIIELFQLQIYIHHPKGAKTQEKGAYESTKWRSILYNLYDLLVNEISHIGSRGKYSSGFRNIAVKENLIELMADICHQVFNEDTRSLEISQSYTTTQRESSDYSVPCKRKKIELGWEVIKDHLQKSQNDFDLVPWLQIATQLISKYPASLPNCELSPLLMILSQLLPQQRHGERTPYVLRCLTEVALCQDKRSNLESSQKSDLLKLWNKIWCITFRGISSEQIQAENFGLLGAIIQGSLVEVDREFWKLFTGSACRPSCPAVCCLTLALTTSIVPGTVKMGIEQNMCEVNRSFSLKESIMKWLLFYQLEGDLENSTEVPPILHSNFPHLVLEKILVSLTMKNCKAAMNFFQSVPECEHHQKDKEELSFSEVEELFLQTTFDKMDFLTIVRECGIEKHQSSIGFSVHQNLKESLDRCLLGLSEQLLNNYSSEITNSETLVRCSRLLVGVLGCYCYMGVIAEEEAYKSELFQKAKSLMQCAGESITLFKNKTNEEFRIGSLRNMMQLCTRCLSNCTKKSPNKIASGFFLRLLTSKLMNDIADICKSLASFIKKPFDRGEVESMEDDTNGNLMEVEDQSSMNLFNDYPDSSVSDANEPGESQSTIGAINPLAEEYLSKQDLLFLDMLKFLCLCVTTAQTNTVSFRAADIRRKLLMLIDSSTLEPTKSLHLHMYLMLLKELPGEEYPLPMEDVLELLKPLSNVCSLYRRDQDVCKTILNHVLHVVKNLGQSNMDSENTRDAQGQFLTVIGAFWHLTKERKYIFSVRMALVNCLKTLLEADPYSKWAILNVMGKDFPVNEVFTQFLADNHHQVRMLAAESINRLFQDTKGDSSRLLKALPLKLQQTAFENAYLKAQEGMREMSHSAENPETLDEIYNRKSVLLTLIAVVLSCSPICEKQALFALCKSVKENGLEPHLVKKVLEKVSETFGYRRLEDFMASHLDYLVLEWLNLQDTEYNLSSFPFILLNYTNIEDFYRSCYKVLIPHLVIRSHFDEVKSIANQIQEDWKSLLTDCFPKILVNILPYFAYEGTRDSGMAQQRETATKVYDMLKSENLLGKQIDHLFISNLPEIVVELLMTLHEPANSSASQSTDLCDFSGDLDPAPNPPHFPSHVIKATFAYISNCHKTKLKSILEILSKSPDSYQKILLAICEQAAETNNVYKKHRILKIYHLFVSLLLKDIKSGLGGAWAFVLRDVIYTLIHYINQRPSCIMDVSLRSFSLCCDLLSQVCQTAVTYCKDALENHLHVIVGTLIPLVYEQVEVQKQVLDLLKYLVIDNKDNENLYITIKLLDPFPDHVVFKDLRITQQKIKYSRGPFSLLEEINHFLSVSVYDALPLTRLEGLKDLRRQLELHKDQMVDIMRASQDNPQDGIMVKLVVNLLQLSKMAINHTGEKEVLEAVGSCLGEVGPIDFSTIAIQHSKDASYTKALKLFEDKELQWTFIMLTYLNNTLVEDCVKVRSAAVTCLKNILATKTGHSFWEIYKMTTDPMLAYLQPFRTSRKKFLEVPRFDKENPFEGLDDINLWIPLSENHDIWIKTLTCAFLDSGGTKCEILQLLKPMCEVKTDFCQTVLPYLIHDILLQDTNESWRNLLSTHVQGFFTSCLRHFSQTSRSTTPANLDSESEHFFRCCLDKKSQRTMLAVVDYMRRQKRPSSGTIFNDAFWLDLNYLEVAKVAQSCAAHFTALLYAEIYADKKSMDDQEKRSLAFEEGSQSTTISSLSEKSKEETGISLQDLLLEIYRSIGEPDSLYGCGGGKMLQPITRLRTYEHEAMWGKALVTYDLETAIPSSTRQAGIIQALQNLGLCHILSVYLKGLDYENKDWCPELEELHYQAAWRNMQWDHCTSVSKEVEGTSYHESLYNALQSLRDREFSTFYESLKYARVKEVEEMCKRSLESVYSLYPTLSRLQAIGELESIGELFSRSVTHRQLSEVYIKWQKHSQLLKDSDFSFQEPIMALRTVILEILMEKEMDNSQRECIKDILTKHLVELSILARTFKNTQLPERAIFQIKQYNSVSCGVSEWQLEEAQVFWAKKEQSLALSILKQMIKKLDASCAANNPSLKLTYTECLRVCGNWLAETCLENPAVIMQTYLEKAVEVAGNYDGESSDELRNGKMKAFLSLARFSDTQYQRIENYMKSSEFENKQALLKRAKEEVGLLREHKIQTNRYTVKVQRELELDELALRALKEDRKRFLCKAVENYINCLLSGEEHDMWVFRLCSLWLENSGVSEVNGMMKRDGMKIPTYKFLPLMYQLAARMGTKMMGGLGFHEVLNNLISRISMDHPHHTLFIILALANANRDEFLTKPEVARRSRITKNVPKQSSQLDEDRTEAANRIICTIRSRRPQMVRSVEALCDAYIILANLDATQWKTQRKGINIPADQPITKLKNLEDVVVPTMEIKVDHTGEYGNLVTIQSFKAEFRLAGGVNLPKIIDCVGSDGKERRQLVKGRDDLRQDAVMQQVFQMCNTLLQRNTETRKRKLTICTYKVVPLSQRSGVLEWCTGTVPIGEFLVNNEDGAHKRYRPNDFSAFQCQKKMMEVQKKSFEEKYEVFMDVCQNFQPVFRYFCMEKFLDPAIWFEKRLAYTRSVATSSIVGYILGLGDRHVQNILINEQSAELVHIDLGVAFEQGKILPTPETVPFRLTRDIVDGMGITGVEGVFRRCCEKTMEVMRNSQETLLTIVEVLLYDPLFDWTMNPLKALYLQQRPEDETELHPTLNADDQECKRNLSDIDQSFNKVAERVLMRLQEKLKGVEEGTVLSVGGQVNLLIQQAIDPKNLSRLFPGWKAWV
- EXPERIMENT NOTES: ATM in Cell Western Assay (pKAP1 in etoposide-treated MCF-7 cells)
- Assay type: cell-based
- EXPERIMENTAL PARAMETERS: MCF-7 cells, etoposide 100 μM, 1 hr, pKAP1 readout
Where a name gives a salt, the structure may show the parent alone.
Some compounds, each annotated with its measured IC50.

Example entries and their recorded answers appear below.
> print(dat)
                                   compound       result
1  CN1C(=O)C2(CC2)c2c1cnc1cc(F)c(-c3cnc(OCCCN4CCCCC4)c(NS(=O)(=O)c4ccccc4)c3)cc21 [Example 118, hydrochloride]  1 to 100 nM
2  CN(C)CCCOc1ncc(-c2ccc3ncc4c(c3c2)C2(CCOCC2)C(=O)N4C)cc1NS(=O)(=O)c1ccccc1  1 to 100 nM
3  Cc1cc(S(=O)(=O)Nc2cc(-c3ccc4ncc5c(c4c3)C3(CCC3)C(=O)N5C)cnc2OCCCN2CCCCC2)sn1 [Example 194, hydrochloride]  1 to 100 nM
4  COC1CCCN(CCCOc2ncc(-c3ccc4ncc5c(c4c3)C3(CCC3)C(=O)N5C)cc2NS(C)(=O)=O)C1 (stereo not drawn)  1 to 100 nM
5  CCN1C(=O)C2(CCC2)c2c1cnc1ccc(-c3cnc(OCCNC)c(NS(C)(=O)=O)c3)cc21 [Example 308, hydrochloride]  1 to 100 nM

Here is the next item to consider.
INPUT: Give IC50 (ATM (Homo sapiens (Human))) of the following compound: CN1C(=O)C2(CCC2)c2c1cnc1ccc(-c3cnc(N4CC(N(C)C)C4)c(NS(=O)(=O)C4CC4)c3)cc21
OUTPUT: 1 to 100 nM
